# Tested on: pigweed (Amaranthus retroflexus)
# assay_comment: Test A postemergence, visual injury rating 0-100
# Assay type: in vivo
# run_conditions: 31 g ai/ha, 0 to 100 scale
Exercise: for every item that follows, state its recorded Pigweed plant response rating.
Numbers only.

Example results:
CC1=[N+]([O-])[C@H](C(=O)Nc2cccc(F)c2F)[C@@H](c2ccc(C)cc2)C1 = 0
CC1=[N+]([O-])[C@@H](C(=O)Nc2cccc(F)c2F)[C@H](c2cccc(C(F)(F)F)c2)C1 = 0
CC1=[N+]([O-])[C@H](C(=O)Nc2cccc(F)c2F)[C@@H](c2ccc(F)c(OC(F)(F)C(F)F)c2)C1 = 20

Now, please, on to the next compound.
input: Find the recorded Pigweed plant response rating belonging to `CC1=[N+]([O-])[C@@H](C(=O)Nc2cccc(F)c2F)[C@H](c2ccc(F)c(F)c2)C1` and report it.
output: 0

###

Exercise: for every item that follows, state its recorded Barnyardgrass plant response rating (0 to 100 scale).
# Tested on: barnyardgrass (Echinochloa crus-galli)
# assay_comment: Test A preemergence, visual injury rating 0-100 (0 no effect, 100 complete control)
# Type: in vivo
# run_conditions: 500 g ai/ha
Answers are plain numbers.

Example results:
CC1=[N+]([O-])C(C(=O)Nc2cccc(F)c2F)C(c2ccc(C(F)(F)F)c(Br)c2)C1 (racemic) = 90
CC1=[N+]([O-])C(C(=O)Nc2cccc(F)c2F)C(c2ccc(C(F)(F)F)c(Cl)c2)C1 (racemic) = 90
CC1=[N+]([O-])C(C(=O)Nc2cccc(F)c2F)C(c2ccc(C)c(Cl)c2)C1 (racemic) = 90
CC1=[N+]([O-])C(C(=O)Nc2cccc(F)c2F)C(c2ccc(F)c(Oc3ncc(F)cn3)c2)C1 (racemic) = 100
CC1=[N+]([O-])C(C(=O)Nc2cccc(F)c2F)C(c2cc(F)ccc2C)C1 (racemic) = 90

// each listed compound needs a value for Barnyardgrass plant response rating (0 to 100 scale)
1. CC1=[N+]([O-])C(C(=O)Nc2cccc(F)c2F)C(c2cccc(Oc3ccc(F)cc3)c2)C1 (racemic)
2. CC1=[N+]([O-])C(C(=O)Nc2cccc(F)c2F)C(c2cc(C)cc(C)c2)C1 (racemic)
3. COc1cc(C2CC(C)=[N+]([O-])C2C(=O)Nc2cccc(F)c2F)cc(C)n1 (racemic)
4. CC1=[N+]([O-])C(C(=O)Nc2cccc(F)c2F)C(c2ccc(C(F)(F)F)c(C)c2)C1 (racemic)
5. CC1=[N+]([O-])C(C(=O)Nc2cccc(F)c2F)C(c2cc(F)c(F)c(F)c2)C1 (centres unmarked)
6. COc1cc(C2CC(C)=[N+]([O-])C2C(=O)Nc2cccc(F)c2F)ccc1C(F)(F)F (centres unmarked)

output:
1. 90
2. 100
3. 100
4. 90
5. 90
6. 90

###

Exercise: for every item that follows, state its recorded Ryegrass, Italian plant response rating.
# Tested on: ryegrass, Italian (Italian ryegrass, Lolium multiflorum)
# assay_comment: Test A preemergence, visual injury rating 0-100
# Format: in vivo
# run_conditions: 500 g ai/ha, 0 to 100 scale

Example results:
CSc1ccccc1NC(=O)C1C(c2ccc(C(F)(F)F)cc2)CC(C)=[N+]1[O-] (racemic) = 20
CC1=[N+]([O-])C(C(=O)Nc2cccc(F)c2F)C(c2ccc(Br)cc2)C1 (racemic) = 20
CC1=[N+]([O-])C(C(=O)Nc2cccc(F)c2F)C(c2cccc(Br)c2)C1 (racemic) = 40
CC1=[N+]([O-])C(C(=O)Nc2cccc(F)c2F)C(c2ccc(C#N)cc2)C1 (racemic) = 0
CC1=[N+]([O-])[C@@H](C(=O)Nc2cccc(F)c2F)[C@H](c2ccc(C(F)(F)F)cc2)C1 (relative stereo) = 50

// each listed compound needs a value for Ryegrass, Italian plant response rating
1. CC1=[N+]([O-])C(C(=O)Nc2cccc(F)c2F)C(c2ccc(F)c(F)c2)C1 (racemic)
2. CC1=[N+]([O-])C(C(=O)Nc2cccc(F)c2F)C(c2c(F)cccc2Cl)C1 (racemic)
3. CC1=[N+]([O-])[C@@H](C(=O)Nc2cccc(F)c2F)[C@H](c2ccc(Cl)cc2)C1 (relative stereo)
4. CC1=[N+]([O-])[C@H](C(=O)Nc2cccc(F)c2F)[C@@H](c2ccc3c(c2)OC(F)(F)O3)C1 (relative stereo)

output:
60
0
80
50
